The compounds listed here are annotated with their melting point.
Measured Property: melting point

{"Compound": "O=C(S[C@@]12CC[C@H](O)[C@@H]1C(=O)NC2=O)c1ccccc1Cl (relative stereo)", "Observed Measurement": "173 to 174 °C"}
{"Compound": "CC(=O)S[C@]12CCC[C@H]1C(=O)NC2=O (relative stereo)", "Observed Measurement": "120 to 122 °C"}
{"Compound": "O=C(S[C@@]12CC[C@@H](O)[C@@H]1C(=O)NC2=O)c1ccccc1 (relative stereo)", "Observed Measurement": "180 to 182 °C"}
{"Compound": "O=C1NC(=O)C2(SC(=O)c3ccc(F)cc3)CCC=C12 (stereo not shown)", "Observed Measurement": "191 to 192 °C"}
{"Compound": "CC(=O)S[C@@]12CC[C@@H](O)[C@@H]1C(=O)NC2=O (relative stereo)", "Observed Measurement": "120 to 129 °C"}
{"Compound": "O=C(Cc1ccccc1)SC12CCC=C1C(=O)NC2=O (stereo not shown)", "Observed Measurement": "155 to 158 °C"}
{"Compound": "O=C(S[C@]12CCC[C@H]1C(=O)NC2=O)c1ccccc1Cl (relative stereo)", "Observed Measurement": "188 to 190 °C"}
